These data points were gathered from patent US20230100838A1.

biological target: GDP-loaded K-Ras (1-169) G12D, C51S, C80L, C118S (Homo sapiens, UniProt P01116, C118S/C51S/C80L/G12D); construct: GDP-loaded K-Ras (1-169) G12D, C51S, C80L, C118S; experiment: K-Ras G12D(GDP) cross-linking assay (conjugate formation, TOF mass spectrometry); format: binding; settings: Table 5; percent covalently modified K-Ras by MS; room temperature; typical compound conc. 2, 10, 25 μM, endpoints 1 and 24 h

Smiles | G12D x-linking (%)
CC(=O)N1C[C@@H]1C(=O)N1CCN(c2nc(OC[C@@H]3CCCN3C)nc3c2CCN(c2cccc4cccc(C)c24)C3)C[C@@H]1CC#N | + (0 < x ≤ 20)
Cc1ccc2[nH]ncc2c1-c1cc2ncnc3c2c(c1Cl)OCC[C@@H]1CN(C(=O)[C@@H]2CN2)CCN31 | 0
CO[C@@H]1CCCC[C@H]1N=C=NC1CCN(c2nc(OC[C@@H]3CCCN3C)nc3c2CCN(c2cccc4cccc(C)c24)C3)CC1 | + (0 < x ≤ 20)
